Items are presented alongside their recorded apparent KD of K4 kissing-loop reporter.
- Test system: K4 kissing-loop RNA reporter
- experimentalProtocol: apparent KD of K4 kissing-loop reporter; higher = weaker reporter binding
- conditionInfo: Eterna round: R107; input ligand: FMN 200 uM
endpointLabel: apparent KD of K4 kissing-loop reporter

sequenceentry="ACGUCACGUAUACUGGUGGUUUCGAUCGAUACCAGUAGCGAGAGUUACCCUUGGCAGCGACAUGAGUGAUGUUCAUGUAUGAAGA [KL-XTheo-A1 #analogue]" result="100 nM"
sequenceentry="GCUAUGGUAGGAAGGAGCGCUUAUUUAUUUUUAAGAGUGAUGUUCGUUAGUAGAUAUUUAAAGCAGGUAGGUCGCCUACUAUAGC [Arginine B K4 14]" result="85.8 nM"
sequenceentry="GCAGUGAUGUUGCGCGGGUACGGUAGAGUGCGAGGACCGGUACGGCCGCCACUCGUACGGAACUGGCUAAUAUAUGGAUAGGUGA [V]" result="496 nM"

###

- Tested on: K4 kissing-loop RNA reporter
- experimentalProtocol: apparent KD of K4 kissing-loop reporter; higher = weaker reporter binding
- conditionInfo: Eterna round: R107; input ligand: theophylline 20 uM
Record Yes whenever apparent KD of K4 kissing-loop reporter is at 0.3 µM or higher; record No when lower.

sequenceentry="UGAUACCAGACGGCCGCCACUGCACCAGUCAAUGACUGAGUGCGGUAGUGCUCAGUGAUGUUGAGUAGGACCGGGUCUGGUAUCU [Mod of Eli's TrypBX 8 v3]" studytarget="K4 kissing-loop RNA reporter" classassignment=No
sequenceentry="GCGCGUCAUGUCAGCGGUGACUACGUCGAUACCAGCAGGGAAACCUGCCCUUGGCAGCGACGCGCUGGAGUGAUGUUCCGACAGA [#2 Exclusion - Theophylline A Attempt #5 (HarryS)]" studytarget="K4 kissing-loop RNA reporter" classassignment=Yes
sequenceentry="UUGUUUGGUUGAGAGGUUGGGCGAGAUGAUACCAGUAGAUAAGAAUACCCUUGGCAGCAUAAGAAAGAUAUAGUGAUGUUGUAUA [SSTheophA.N]" studytarget="K4 kissing-loop RNA reporter" classassignment=Yes
sequenceentry="CAAUGAAUAUAAGAUGAUAUCAUAACAGAAGGAGCGAGUGAUAACUCAGGUAGGUCGCUGAAUUUAUCGAGUGAUGUUCGAUAAA [Same State Arginine A GF10]" studytarget="K4 kissing-loop RNA reporter" classassignment=No

###

- System: MS2 coat protein
- experimentalProtocol: apparent KD of MS2 coat protein; higher = weaker reporter binding
- conditionInfo: Eterna round: R107; input ligand: theophylline 2 mM
endpointLabel: apparent KD of MS2 coat protein

sequenceentry="CUCUGAGUGAGAAAUCACUCAGAGGCGGAUACCAGCGAGGUCCAUCGCCCUUGGCAGCCGAACAUGAGGAUCACCCAUGUCGGUA [#1 Same State - Theophylline A Attempt #21 (HarryS)]" endpointlabel="apparent KD of MS2 coat protein" result="14.5 nM"
sequenceentry="CCAUCUACAUCGGCCGCCACUGAACCAAGGAGACAUGAGGAUCACCCAUGUAUGGGAAACCAUCAUAGGACCGGGAUGAUCUACC [doubleHook]" endpointlabel="apparent KD of MS2 coat protein" result="415 nM"
sequenceentry="AAGACAUGAGGAUCACCCAUGUCGUGUGAACGAGGACCGGUACGGCCGCCACUCGUUUGAAAAUAAACGAAUGCGGCCUGGGAAA [Exclusion Tryp A GF1]" endpointlabel="apparent KD of MS2 coat protein" result="12.3 nM"
sequenceentry="GCCGCGGCCGCGAUACACAUGGGUGUGUAACGAGGACCGGUACGGCCGCCACUCGAGAUGGCACAUGAGGAUCACCCAUGUGUGC [Exclusion Tryp A GF16]" endpointlabel="apparent KD of MS2 coat protein" result="44.5 nM"
sequenceentry="UGUACAGACAUCGAAUUCCUAUGUGCUGAAGGAGCGUCGUUGACGACAGGUAGGUCGCAGUUAACAUGAGGAUCACCCAUGUACA [Arg A Ex t5]" endpointlabel="apparent KD of MS2 coat protein" result="119 nM"
sequenceentry=UGUAUGUGAUCUGAUACCAGUCCAACUGGUAAAUCAUGAGGAUCACCCAUGGAAAAUUGGGACCCUUGGCAGCAGAUCGCAUACU endpointlabel="apparent KD of MS2 coat protein" result="38.1 nM"

###

- Test system: K4 kissing-loop RNA reporter;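 further: bound reporter read as fluorescence of individual clusters on recovered sequencing chips by microscopy, with normalized cluster intensities fitted with a binding model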
- experimentalProtocol: apparent KD of K4 kissing-loop reporter; higher = weaker reporter binding
- conditionInfo: Eterna round: R107; input ligand: none
endpointLabel: apparent KD of K4 kissing-loop reporter (nM)

sequenceentry="AAACAUUGGUGCGAUACCAGCUGAUCGGAAACGAUCAUGCUGGAGUGAUGUUCCAGGAAAAGCCCUUGGCAGCGCACCGAUGAAA [MAT - Same State Theophlline B - Mod of Eli - D29]" unitstring=nM result=78.5
sequenceentry="AAAUAAAGCAGUCACCCAGUGAUGUUGGAAGGAGCGUGCGAAAGCACAGGUAGGUCGCCGAUAAGGACAAAGUCCAGUGGCUGCA [#SwitchBubble 28 #K4Early]" unitstring=nM result=595
sequenceentry="UGACAUUGCUCAGAUACCAGACCUGAGGAACACCCAGGUGCCAAAACGUACUAAAUAAAGGUCCCUUGGCAGCUGAGCAAUGUCU [TheoBX 13]" unitstring=nM result=35.4
sequenceentry="UGCAGUGAUGUUGCGAGUGGCAGAUACGAAGGAGCGUGGUGAGACACAGGUAGGUCGCGUAUCGAAAUUGCUGUCACUAAAAUGC [#8]" unitstring=nM result=501
sequenceentry="UGUCAUUGGUCUGAUACCAGUUAGACCGAUAGGUCAAAACUGGAGUGAUGUUCCUAAAAUAACCCUUGGCAGCAGACCGAUGACU [TheoBS 2 #SwitchBubble #StaticStem]" unitstring=nM result=1010
sequenceentry="UGACUACAUAAGGAUUAAUCCUAGUGAUGUUAGGAUAUGCUGAUAAGCAGAAGGAACGGAGAUCGAAGGAUCUCAUAUGUAGUCU [whbob_Ex_FMNA__2th195]" unitstring=nM result=164
sequenceentry="UUUAACGAGUGAUGUUCGUAAAGUAAUAGUUAGGAUAUCGUUUUUUCGAGAAGGAACUUCGAAGUGAUACGAAAGUAUCGCUUCG [FMN A 8]" unitstring=nM result=192
sequenceentry="CCAGGAUGAUGAGGAUGAUAAAUUACUGAAGGAGCGCAUAUAGUUGCAGGUAGGUCGCGGUGAAUAAGUAUAGUGAUGUUAUACC [SSArgA.Aa]" unitstring=nM result=309
sequenceentry="ACCGCAUUGGGAUGAUCCCAAUGCGCUGGUCGAGGACCGGUACGGCCGCCACUCGUCCAGUGAUGUUGGAAUUGGGCUACUGAAG [KL-XTryp-A11]" unitstring=nM result=183
sequenceentry="GCAACAUUGGCAGGAUAUCCUUCUCAGUGAUGUUGAGGGUUCAGCUAACGAAAGUUAGUUGUACCAGGAGAAGGGCUAAUGUUGC [Omei KL FMN B SS A v7]" unitstring=nM result=1420
sequenceentry=AAGCAGUCACUCGAACCCAUCGAAGAUGGGCGAGGACCGGUACGGCCGCCACUCGGAGUGAUGUUCCGAAGACUGCAAAAUAAAA unitstring=nM result=293
sequenceentry="CGUAGCAGACGAAGGAGCGGCUACCUGAUUCAAGGUGAUGCUUGAGUGAUGUUCAGGUGUAGCCAGGUAGGUCGCGUCUGCUACG [Arg B Ex t9]" unitstring=nM result=164
sequenceentry="UUCGUCGCGCAUGAUACCAGCGAGAUUUAACGCCGAAUCCUCACGCAGUGAUGUUGCACCCGCCCUUGGCAGCAUAGCCGGUUAC [theeternabot_sameState_KL_Theo_B_13]" unitstring=nM result=328
sequenceentry="GGUGACGGCCAGGAGUGAUGUAUAGAAUAGCGAGGACCGGUACGGCCGCCACUCGUGAAGAAAAGGGAGUGAUGUUCCGUAAUGG [Kazoo B]" unitstring=nM result=450
sequenceentry="AUGACUCAAUAGUGAGUGAUGUUCACUGGACGAGGACCGGUACGGCCGCCACUCGAGAGUGGUGGACACUGUGUCACUGAGUCAU [Tryp A Ex t1]" unitstring=nM result=154
sequenceentry="UGACUGGACUGAAGGAGCGCGCGAGACAAAGUCUCGAACUGCUAGUGAUGUUAGCGAAUAACGCAGGUAGGUCGCAGUCUAGUCU [ArgBS 14 #SwitchBubble #StaticStem]" unitstring=nM result=175
sequenceentry="CUCGAGUGAUGUUCGAUUAUUUAUACAGAUACCAGUGAAUUUUAACACCCUUGGCAGCUGGUUGUAUCAUUUUUUUUUACUAAAG [JR_ExcTheophyA_Sub008]" unitstring=nM result=179
sequenceentry="UCGCCCGAUGGAGAUACCAGCAGUUGUGCAGUGAUGUUGCACAAGUACUCGCUCCAUUGCUGCCCUUGGCAGCUCCCGGCAAACA [Enraed]" unitstring=nM result=87.6
sequenceentry="CUUGGAAGGACGGCCGCCACUGGGCAGUGAUGUUGCCCGACCAGGUAACGCAGUGAUGUUGCGACCAGGACCGGGUCCUAGGAAU [Exclusion Tryptophan B GF 24]" unitstring=nM result=155
sequenceentry="UCCUCGAAUCGACCUCGAAAGAGGAUGGAUACCAGAGAAGAAAUUCUCCCUUGGCAGCCAGUGAUGUUGGAACGAGGUAAAUAAA [#SwitchBubble 20 #K4Late]" unitstring=nM result=517
sequenceentry="UACAGGGAUAGUGAUGUUAUCCCAUGUGAUACCAGUGCCAUCCAACACCCUUGGCAGCAUACGGGCAGUGAUGUUGUUCUUGGUA [#16 K4 Theophylline A Exclusion]" unitstring=nM result=86
sequenceentry="GCUAUGGUAGGAAGGAGCGCUUGCUCGGUCAUAAGAGUGAUGUUCGAGACCGAGCAUUUAUAGCAGGUAGGUCGCCUACUAUAGC [Arginine B K4 7]" unitstring=nM result=200
sequenceentry="GCGCGGCACAGUGAUGUUGUGCCUCGGAGACGAGGACCGGUACGGCCGCCACUCGUCCGCGCAGCUGAGGCAAAAGCCUCGGCAA [Omei KL Tryp A SS B v4]" unitstring=nM result=473
